# system-tested: AKT3 (Homo sapiens, UniProt Q9Y243)
# Sequence (Q9Y243 whole entry): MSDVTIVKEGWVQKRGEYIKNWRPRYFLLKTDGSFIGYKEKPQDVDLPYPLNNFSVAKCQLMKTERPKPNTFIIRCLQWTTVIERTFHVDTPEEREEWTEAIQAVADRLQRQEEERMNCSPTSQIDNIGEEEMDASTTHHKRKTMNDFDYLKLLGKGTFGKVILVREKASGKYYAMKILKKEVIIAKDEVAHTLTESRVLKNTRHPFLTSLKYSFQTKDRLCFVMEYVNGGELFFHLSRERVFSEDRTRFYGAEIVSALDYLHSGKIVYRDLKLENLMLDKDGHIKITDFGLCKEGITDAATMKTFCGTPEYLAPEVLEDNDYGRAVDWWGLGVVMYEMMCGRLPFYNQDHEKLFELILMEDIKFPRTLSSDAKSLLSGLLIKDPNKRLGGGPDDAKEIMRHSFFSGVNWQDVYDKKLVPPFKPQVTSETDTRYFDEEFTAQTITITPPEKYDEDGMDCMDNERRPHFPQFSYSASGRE
# measurement-protocol: KINOMEscan competition binding
# particulars: read-out: %Inh AKT3

{"compound": "Cn1cc(-c2cnc(N)c3c(-c4ccc5c(c4)CCN5C(=O)Cc4ccccc4)csc23)cn1 [UNC10225012A]", "uom": "%", "inhibition at 1 µM": 8}
{"compound": "Cc1ccc(NC(=O)Nc2cccc(C(F)(F)F)c2)cc1 [UNC10225187A]", "uom": "%", "inhibition at 1 µM": 0}
{"compound": "COc1cccc(OC)c1C(=O)Nc1cccc(-c2nn3ccccc3c2-c2ccnc(Nc3cccc(F)c3)n2)c1 [UNC10225310A]", "uom": "%", "inhibition at 1 µM": 0}
